Listed here: items and their measured half-life.
- ASSAY PROCEDURE: Half life in mouse at 10 mg/kg, po
- Type: ADME, organism-based
- STUDY CONDITIONS: in vivo
OUTCOME MEASURE: half-life (days)

{"SMILES CODE": "C[C@H](C(=O)Nc1ccc(Cl)cc1)[C@H]1CC[C@]2(CC1)COc1cc(C(F)(F)F)ccc12", "VALUE OBSERVED": 4.79}
{"SMILES CODE": "C[C@@H](C(=O)Nc1ccc(Cl)cc1)[C@H]1CC[C@@H](c2ccnc3ccc(F)cc32)CC1", "VALUE OBSERVED": 0.104}
